In this section we review reported Activity values for a set of molecules.
# System: Mus musculus
# assay-procedure: Toxicity in mouse L1210 cells implanted CDF1 mouse assessed as average weight gain at 3.2 mg/kg, ip qd for 1 to 5 days
# Format: organism-based
# Set-up: dose 3.2 mg/kg, route intraperitoneal
# stated-conditions: in vivo
Unit g implied. Number only.

[
  {
    "compound-structure": "CC[C@@]1(O)C[C@H](O[C@H]2C[C@H](N(C)C)[C@H](O[C@H]3C[C@H](O)[C@H](O)[C@H](C)O3)[C@H](C)O2)c2c(cc3c(c2O)C(=O)c2c(O)ccc(O)c2C3=O)[C@H]1C(=O)OC",
    "readout-unit": "g",
    "Activity": -1.2
  }
]

Now turn to the next molecule.
Which Activity reading was recorded for the molecule CC[C@@]1(O)C[C@H](O[C@H]2C[C@H](NC)[C@H](O[C@H]3C[C@H](O)[C@H](O)[C@H](C)O3)[C@H](C)O2)c2c(cc3c(c2O)C(=O)c2c(O)ccc(O)c2C3=O)[C@H]1C(=O)OC ? 2.8

* * *

# Tested on: Mus musculus
# assay-procedure: Toxicity in mouse L1210 cells implanted CDF1 mouse assessed as average weight gain at 6.4 mg/kg, ip qd for 1 to 5 days
# Format: organism-based
# Set-up: dose 6.4 mg/kg, route intraperitoneal
# stated-conditions: in vivo
Catalogue of Activity values
Lab book: enter the figure in g, no units written.

[
  {
    "molecule": "CC[C@@]1(O)C[C@H](O[C@H]2C[C@H](N(C)C)[C@H](O[C@H]3C[C@H](O)[C@H](O)[C@H](C)O3)[C@H](C)O2)c2c(cc3c(c2O)C(=O)c2c(O)ccc(O)c2C3=O)[C@H]1C(=O)OC [MUSETTAMYCIN]",
    "readout-unit": "g",
    "value-measured": -1.9
  }
]

Name the recorded Activity for CC[C@@]1(O)C[C@H](O[C@H]2C[C@H](NC)[C@H](O[C@H]3C[C@H](O)[C@H](O)[C@H](C)O3)[C@H](C)O2)c2c(cc3c(c2O)C(=O)c2c(O)ccc(O)c2C3=O)[C@H]1C(=O)OC [SCHAUNARDIMYCIN] . 1.6

* * *

# Test system: Mus musculus
# assay-procedure: Toxicity in mouse L1210 cells implanted CDF1 mouse assessed as average weight gain at 1.6 mg/kg, ip qd for 1 to 5 days
# Type: organism-based
# Set-up: dose 1.6 mg/kg, route intraperitoneal
# stated-conditions: in vivo
endpoint-label: weight gain
Your answer should be a number followed by the unit of measure.

[
  {
    "compound-structure": "CC[C@@]1(O)C[C@H](O[C@H]2C[C@H](N(C)C)[C@H](O[C@H]3C[C@H](O)[C@H](O)[C@H](C)O3)[C@H](C)O2)c2c(cc3c(c2O)C(=O)c2c(O)ccc(O)c2C3=O)[C@H]1C(=O)OC",
    "subject-of-test": "Mus musculus",
    "weight gain": "0.3 g"
  }
]

Endpoint output: weight gain of CC[C@@]1(O)C[C@H](O[C@H]2C[C@H](NC)[C@H](O[C@H]3C[C@H](O)[C@H](O)[C@H](C)O3)[C@H](C)O2)c2c(cc3c(c2O)C(=O)c2c(O)ccc(O)c2C3=O)[C@H]1C(=O)OC . Value? 3 g
